The molecules listed here are annotated with their pIC50.
Tested on: Plasmodium falciparum
Test: Antiprotozoal activity against intraerythrocytic stage of chloroquine/pyrimethamine-resistant Plasmodium falciparum K1 by [3H]hypoxanthine incorporation assay
Assay type: functional, organism-based
Keep in mind that pIC50 stands for -log10 of concentration in molar terms.

Request: Quick one: pIC50 for `CC(C)(C)OC(=O)N1CCN(C(=O)OC(C)(C)C)C1=Nc1ccc2[nH]c3ccc(N=C4N(C(=O)OC(C)(C)C)CCN4C(=O)OC(C)(C)C)cc3c(=O)c2c1` ?
Result: 4.48

Request: Quick one: pIC50 for `Nc1ccc2[nH]c3ccc(N)cc3c(=O)c2c1` ?
Result: 5.60

Request: Quick one: pIC50 for `Nc1ccc(Nc2ccc([N+](=O)[O-])cc2C(=O)O)cc1` ?
Result: 4.28

Request: Quick one: pIC50 for `Nc1cccc(Nc2ccc([N+](=O)[O-])cc2C(=O)O)c1` ?
Result: 4.15

---

System: Trypanosoma brucei rhodesiense
Assay: Antiprotozoal activity against bloodstream form of Trypanosoma brucei rhodesiense STIB900 trypomastigote by alamar-blue assay
Assay type: functional, organism-based
Conditions: Trypanosoma brucei, STIB900
pIC50: −log10 of the molar value.
Outcome label depends on pIC50 relative to 6: at/above gives Met, below gives Not met.

Reference set (6 entries):
cpd.smiles: Cn1c2ccc(NC3=NCCN3)cc2c(=O)c2cc(NC3=NCCN3)ccc21.O=C(O)C(F)(F)F.O=C(O)C(F)(F)F
discrete.label: Met

cpd.smiles: CC(C)(C)OC(=O)N1CCN(C(=O)OC(C)(C)C)C1=Nc1ccc2[nH]c3ccc(N=C4N(C(=O)OC(C)(C)C)CCN4C(=O)OC(C)(C)C)cc3c(=O)c2c1
discrete.label: Not met

cpd.smiles: Cn1c2ccc(NC3=NCCN3)cc2c(=O)c2ccc(NC3=NCCN3)cc21.O=C(O)C(F)(F)F.O=C(O)C(F)(F)F
discrete.label: Met

cpd.smiles: Cl.Cl.O=c1c2ccc(NC3=NCCN3)cc2[nH]c2ccc(NC3=NCCN3)cc12
discrete.label: Met

cpd.smiles: Nc1ccc2[nH]c3ccc([N+](=O)[O-])cc3c(=O)c2c1
discrete.label: Not met

cpd.smiles: O=C(O)C(F)(F)F.O=C(O)C(F)(F)F.O=c1c2ccc(NC3=NCCN3)cc2[nH]c2cc(NC3=NCCN3)ccc12
discrete.label: Met

Request: Hi team, for `O=C(O)C(F)(F)F.O=C(O)C(F)(F)F.O=C1c2ccc(NC3=NCCN3)cc2C(=O)c2ccc(NC3=NCCN3)cc21` , is the recorded pIC50 at or above 6?
Result: Not met

Request: Hi team, for `Nc1cccc(Nc2ccc([N+](=O)[O-])cc2C(=O)O)c1` , is the recorded pIC50 at or above 6?
Result: Not met

Request: Hi team, for `Nc1ccc2c(=O)c3cc(N)ccc3[nH]c2c1` , is the recorded pIC50 at or above 6?
Result: Not met

Request: Hi team, for `Nc1ccc2c(=O)c3cc([N+](=O)[O-])ccc3[nH]c2c1` , is the recorded pIC50 at or above 6?
Result: Not met

Request: Hi team, for `Cl.Cl.O=c1c2cc(NC3=NCCN3)ccc2[nH]c2ccc(NC3=NCCN3)cc12` , is the recorded pIC50 at or above 6?
Result: Met

Request: Hi team, for `Nc1ccc2[nH]c3ccc(N)cc3c(=O)c2c1` , is the recorded pIC50 at or above 6?
Result: Not met

Request: Hi team, for `Nc1ccc(Nc2ccc([N+](=O)[O-])cc2C(=O)O)cc1` , is the recorded pIC50 at or above 6?
Result: Not met

---

The compounds listed here are annotated with their pIC50.
System: Plasmodium falciparum
Test: Antiprotozoal activity against intraerythrocytic stage of chloroquine/pyrimethamine-resistant Plasmodium falciparum K1 by [3H]hypoxanthine incorporation assay
Type: functional, organism-based
Keep in mind that pIC50 stands for -log10 of concentration in molar terms.

Request: Quick one: pIC50 for `Nc1ccc2c(=O)c3cc(N)ccc3[nH]c2c1` ?
Result: 5.32

Request: Quick one: pIC50 for `O=C(O)C(F)(F)F.O=C(O)C(F)(F)F.O=C1c2ccc(NC3=NCCN3)cc2C(=O)c2ccc(NC3=NCCN3)cc21` ?
Result: 7.22

Request: Quick one: pIC50 for `Cl.Cl.O=c1c2cc(NC3=NCCN3)ccc2[nH]c2ccc(NC3=NCCN3)cc12` ?
Result: 6.47

Request: Quick one: pIC50 for `Nc1ccc2[nH]c3ccc([N+](=O)[O-])cc3c(=O)c2c1` ?
Result: 4.31

Request: Quick one: pIC50 for `Nc1ccc2c(=O)c3cc([N+](=O)[O-])ccc3[nH]c2c1` ?
Result: 4.47

---

Test system: L6
Assay: Cytotoxicity against rat L6 cells
Assay type: cell-based
Details: l6
reported.metric: CC50 (µM)
Report the value in µM with no unit label.

Request: Quick one: CC50 for `O=C(O)C(F)(F)F.O=C(O)C(F)(F)F.O=c1c2ccc(NC3=NCCN3)cc2[nH]c2cc(NC3=NCCN3)ccc12` ?
Result: 99

---

Assay: Selectivity index, ratio of CC50 for rat L6 cells to IC50 for Plasmodium falciparum NF54
Format: functional
Binary label based on Ratio CC50/IC50 with cut-off 200: below gives TRUE, not below gives FALSE.

Reference set (4 entries):
cpd.smiles: Cn1c2ccc(NC3=NCCN3)cc2c(=O)c2cc(NC3=NCCN3)ccc21.O=C(O)C(F)(F)F.O=C(O)C(F)(F)F
discrete.label: FALSE
//
cpd.smiles: Cn1c2ccc(NC3=NCCN3)cc2c(=O)c2ccc(NC3=NCCN3)cc21.O=C(O)C(F)(F)F.O=C(O)C(F)(F)F
discrete.label: TRUE
//
cpd.smiles: Cl.Cl.O=c1c2ccc(NC3=NCCN3)cc2[nH]c2ccc(NC3=NCCN3)cc12
discrete.label: TRUE
//
cpd.smiles: O=C(O)C(F)(F)F.O=C(O)C(F)(F)F.O=c1c2ccc(NC3=NCCN3)cc2[nH]c2cc(NC3=NCCN3)ccc12
discrete.label: FALSE

Turning now to a further record.
Request: Record `Cl.Cl.O=c1c2ccc(NC3=NCCN3)cc2[nH]c2cc(NC3=NCCN3)ccc12` : is its Ratio CC50/IC50 strictly below 200?
Result: FALSE

---

The compounds listed here are annotated with their CC50.
Assay: Cytotoxicity against rat L6 cells
Format: cell-based
Conditions: L6 cells
Report the value in µM with no unit label.

Please review the entries below; each comes with its answer.
compound: Nc1ccc2[nH]c3ccc(N)cc3c(=O)c2c1
CC50, µM: 75

compound: CC(C)(C)OC(=O)N1CCN(C(=O)OC(C)(C)C)C1=Nc1ccc2[nH]c3ccc(N=C4N(C(=O)OC(C)(C)C)CCN4C(=O)OC(C)(C)C)cc3c(=O)c2c1
CC50, µM: 73

compound: Cn1c2ccc(NC3=NCCN3)cc2c(=O)c2ccc(NC3=NCCN3)cc21.O=C(O)C(F)(F)F.O=C(O)C(F)(F)F
CC50, µM: 98

compound: O=C(O)C(F)(F)F.O=C(O)C(F)(F)F.O=C1c2ccc(NC3=NCCN3)cc2C(=O)c2ccc(NC3=NCCN3)cc21
CC50, µM: 75

compound: Nc1ccc2[nH]c3ccc([N+](=O)[O-])cc3c(=O)c2c1
CC50, µM: 186

Now examine the next entry.
Request: Quick one: CC50 for `Cl.Cl.O=c1c2ccc(NC3=NCCN3)cc2[nH]c2ccc(NC3=NCCN3)cc12` ?
Result: 107

---

Test: Binding affinity to fish sperm DNA assessed as hypochromicity after 1 min by UV-Vis spectrophotometry
Parameters: concentration or dose not given beside the values
The compounds listed here are annotated with their Activity.
Report the value in % with no unit label.

Request: Quick one: Activity for `Cn1c2ccc(NC3=NCCN3)cc2c(=O)c2cc(NC3=NCCN3)ccc21.O=C(O)C(F)(F)F.O=C(O)C(F)(F)F` ?
Result: 48

Request: Quick one: Activity for `Cn1c2ccc(NC3=NCCN3)cc2c(=O)c2ccc(NC3=NCCN3)cc21.O=C(O)C(F)(F)F.O=C(O)C(F)(F)F` ?
Result: 50

Request: Quick one: Activity for `Cl.Cl.O=c1c2cc(NC3=NCCN3)ccc2[nH]c2ccc(NC3=NCCN3)cc12` ?
Result: 49

Request: Quick one: Activity for `O=C(O)C(F)(F)F.O=C(O)C(F)(F)F.O=C1c2ccc(NC3=NCCN3)cc2C(=O)c2ccc(NC3=NCCN3)cc21` ?
Result: 46

Request: Quick one: Activity for `Cl.Cl.O=c1c2ccc(NC3=NCCN3)cc2[nH]c2ccc(NC3=NCCN3)cc12` ?
Result: 47

---

System: Trypanosoma brucei rhodesiense
Assay: Antiprotozoal activity against bloodstream form of Trypanosoma brucei rhodesiense STIB900 trypomastigote by alamar-blue assay
Assay type: functional, organism-based
reported.metric: pIC50
Keep in mind that pIC50 stands for -log10 of concentration in molar terms.

Request: Report pIC50 for `Cl.Cl.O=c1c2ccc(NC3=NCCN3)cc2[nH]c2cc(NC3=NCCN3)ccc12` tested on Trypanosoma brucei rhodesiense.
Result: 7.21
